Taken from patent EP4782447A1.

# test_details: Pharmacokinetic study of mice via intravenous injection and oral administration
# Type: in vivo
# measurement_setup: mouse, in vivo; Intravenous administration (5mg/kg), male CD-1 mice, plasma; a: mixed blood samples, b: mean of individual samples
reported_property: AUC(0-inf) (ng·h/mL)
Your answer should be a plain number; it is taken to be in ng·h/mL.

Q) Provide one value: measured AUC(0-inf) of CCC1=C(c2c(F)c(S(=O)(=O)NC3(C#N)CC3)cc3c(-c4nnc(C(F)(F)F)s4)nn(C)c23)CCN(S(=O)(=O)C(C)C)C1 [Compound 13]
A) 35900

* * *

# test_details: Pharmacokinetic study of mice via intravenous injection and oral administration
# Type: in vivo
# measurement_setup: mouse; Intravenous administration (5mg/kg), male CD-1 mice, plasma; a: mixed blood samples, b: mean of individual samples
Readings of AUC(0-inf) for the listed compounds
Your answer should be a plain number; it is taken to be in ng·h/mL.

Example cases with answers are listed next.
CC1=C(c2c(F)c(S(=O)(=O)NC3(C#N)CC3)cc3c(-c4nnc(C(F)(F)F)s4)nn(C)c23)CCN(S(=O)(=O)C(C)C)C1
50100
CC(C)S(=O)(=O)N1CC=C(c2c(F)c(S(=O)(=O)NC3(C#N)CC3)cc3c(-c4nnc(C(F)F)s4)nn(C)c23)CC1
33700

Q) Provide one value: measured AUC(0-inf) of "CC1=C(c2c(F)c(S(=O)(=O)NC3(C#N)CC3)cc3c(-c4nnc(C(F)F)s4)nn(C)c23)CCN(S(=O)(=O)C(C)C)C1"
A) 20300

Q) Provide one value: measured AUC(0-inf) of "CC(C)S(=O)(=O)N1CC=C(c2c(F)c(S(=O)(=O)NC3(C#N)CC3)cc3c(-c4nnc(C(F)(F)F)s4)nn(C)c23)CC1"
A) 44100

Q) Provide one value: measured AUC(0-inf) of "CC(C)C(=O)N1CC=C(c2c(F)c(S(=O)(=O)NC3(C#N)CC3)cc3c(-c4nnc(C(F)F)s4)nn(C)c23)CC1"
A) 8560

* * *

# Tested on: HCC1395
# test_details: Inhibitory effect on cell line proliferation detected by CTG assay
# Format: cell-based
# measurement_setup: Homo sapiens, 168 h; HCC1395 cells, 7 days, CellTiter-Glo
reported_property: IC50 (µM)
Your answer should be a plain number; it is taken to be in µM.

Example cases with answers are listed next.
CC(C)S(=O)(=O)N1CC=C(c2c(F)c(S(=O)(=O)NC3(C)CC3)cc3c(-c4nnc(C(F)F)s4)nn(C)c23)CC1 [Compound 7]
0.074
CC(C)S(=O)(=O)N1CC=C(c2c(F)c(S(=O)(=O)NC3(C#N)CC3)cc3c(-c4nnc(C(F)F)s4)nn(C)c23)CC1 [Compound 3]
0.0992
CC(C)S(=O)(=O)N1CC=C(c2c(F)c(S(=O)(=O)NC3(C)CC3)cc3c(-c4nnc(C(F)(F)F)s4)nn(C)c23)CC1 [Compound 6]
0.0913
CC1=C(c2c(F)c(S(=O)(=O)NC3(C)CC3)cc3c(-c4nnc(C(F)F)s4)nn(C)c23)CCN(S(=O)(=O)C(C)C)C1 [Compound 8]
0.0322
CC1=C(c2c(F)c(S(=O)(=O)NC3(C#N)CC3)cc3c(-c4nnc(C(F)(F)F)s4)nn(C)c23)CCN(S(=O)(=O)C(C)C)C1 [Compound 2]
0.0368

Q) Provide one value: measured IC50 of CC1=C(c2c(F)c(S(=O)(=O)NC3(C)CC3)cc3c(-c4nnc(C(F)(F)F)s4)nn(C)c23)CCN(S(=O)(=O)C(C)C)C1 [Compound 5]
A) 0.043

Q) Provide one value: measured IC50 of CC(C)S(=O)(=O)N1CC=C(c2c(F)c(S(=O)(=O)NC3(C#N)CC3)cc3c(-c4nnc(C(F)(F)F)s4)nn(C)c23)CC1 [Compound 1]
A) 0.0949

Q) Provide one value: measured IC50 of CC(C)C(=O)N1CC=C(c2c(F)c(S(=O)(=O)NC3(C#N)CC3)cc3c(-c4nnc(C(F)F)s4)nn(C)c23)CC1 [Compound 9]
A) 0.0446

Q) Provide one value: measured IC50 of CCC1=C(c2c(F)c(S(=O)(=O)NC3(C#N)CC3)cc3c(-c4nnc(C(F)(F)F)s4)nn(C)c23)CCN(S(=O)(=O)C(C)C)C1 [Compound 13]
A) 0.0313

Q) Provide one value: measured IC50 of CC1=C(c2c(F)c(S(=O)(=O)NC3(C#N)CC3)cc3c(-c4nnc(C(F)F)s4)nn(C)c23)CCN(S(=O)(=O)C(C)C)C1 [Compound 4]
A) 0.0445

* * *

# test_details: Pharmacokinetic study of mice via intravenous injection and oral administration
# Type: in vivo
# measurement_setup: mouse, in vivo; Oral administration (10mg/kg), male CD-1 mice, plasma; a: mixed blood samples, b: mean of individual samples
reported_property: AUC(0-inf) (ng·h/mL)
Your answer should be a plain number; it is taken to be in ng·h/mL.

Q) Provide one value: measured AUC(0-inf) of CCC1=C(c2c(F)c(S(=O)(=O)NC3(C#N)CC3)cc3c(-c4nnc(C(F)(F)F)s4)nn(C)c23)CCN(S(=O)(=O)C(C)C)C1 [Compound 13]
A) 25400

* * *

# test_details: Pharmacokinetic study of mice via intravenous injection and oral administration
# Format: in vivo
# measurement_setup: mouse; Intravenous administration (5mg/kg), male CD-1 mice, plasma; a: mixed blood samples, b: mean of individual samples
Class TRUE: AUC(0-t) at least 30000 ng·h/mL. Class FALSE: AUC(0-t) below 30000 ng·h/mL.

Some solved cases for reference:
CC(C)S(=O)(=O)N1CC=C(c2c(F)c(S(=O)(=O)NC3(C#N)CC3)cc3c(-c4nnc(C(F)F)s4)nn(C)c23)CC1
TRUE
CC(C)C(=O)N1CC=C(c2c(F)c(S(=O)(=O)NC3(C#N)CC3)cc3c(-c4nnc(C(F)F)s4)nn(C)c23)CC1
FALSE
CC(C)S(=O)(=O)N1CC=C(c2c(F)c(S(=O)(=O)NC3(C#N)CC3)cc3c(-c4nnc(C(F)(F)F)s4)nn(C)c23)CC1
TRUE
CC1=C(c2c(F)c(S(=O)(=O)NC3(C#N)CC3)cc3c(-c4nnc(C(F)F)s4)nn(C)c23)CCN(S(=O)(=O)C(C)C)C1
FALSE

Q) Has "CC1=C(c2c(F)c(S(=O)(=O)NC3(C#N)CC3)cc3c(-c4nnc(C(F)(F)F)s4)nn(C)c23)CCN(S(=O)(=O)C(C)C)C1" a recorded AUC(0-t) greater than or equal to 30000 ng·h/mL?
A) TRUE

* * *

# test_details: Pharmacokinetic study of mice via intravenous injection and oral administration
# Type: in vivo
# measurement_setup: mouse, in vivo; Oral administration (10mg/kg), male CD-1 mice, plasma; a: mixed blood samples, b: mean of individual samples
reported_property: Cmax (ng/mL)
Your answer should be a plain number; it is taken to be in ng/mL.

Q) Provide one value: measured Cmax of CCC1=C(c2c(F)c(S(=O)(=O)NC3(C#N)CC3)cc3c(-c4nnc(C(F)(F)F)s4)nn(C)c23)CCN(S(=O)(=O)C(C)C)C1 [Compound 13]
A) 2500

* * *

# test_details: Pharmacokinetic study of mice via intravenous injection and oral administration
# Assay type: in vivo
# measurement_setup: mouse; Oral administration (10mg/kg), male CD-1 mice, plasma; a: mixed blood samples, b: mean of individual samples
In plain terms, low Cmax, meaning strictly below 3000 ng/mL, gives Yes, and everything else gives No.

CC1=C(c2c(F)c(S(=O)(=O)NC3(C#N)CC3)cc3c(-c4nnc(C(F)F)s4)nn(C)c23)CCN(S(=O)(=O)C(C)C)C1
Yes
CC(C)S(=O)(=O)N1CC=C(c2c(F)c(S(=O)(=O)NC3(C#N)CC3)cc3c(-c4nnc(C(F)(F)F)s4)nn(C)c23)CC1
No
CC(C)C(=O)N1CC=C(c2c(F)c(S(=O)(=O)NC3(C#N)CC3)cc3c(-c4nnc(C(F)F)s4)nn(C)c23)CC1
No
CC(C)S(=O)(=O)N1CC=C(c2c(F)c(S(=O)(=O)NC3(C#N)CC3)cc3c(-c4nnc(C(F)F)s4)nn(C)c23)CC1
No

Next:
Q) Lab note: Cmax threshold 3000 ng/mL. Does this molecule come in strictly under it? "CC1=C(c2c(F)c(S(=O)(=O)NC3(C#N)CC3)cc3c(-c4nnc(C(F)(F)F)s4)nn(C)c23)CCN(S(=O)(=O)C(C)C)C1"
A) No

* * *

# test_details: Pharmacokinetic study of mice via intravenous injection and oral administration
# Assay type: in vivo
# measurement_setup: mouse; Intravenous administration (5mg/kg), male CD-1 mice, plasma; a: mixed blood samples, b: mean of individual samples
In plain terms, low clearance, meaning strictly below 4 mL/min/kg, gives T, and everything else gives F.

Some solved cases for reference:
CC(C)S(=O)(=O)N1CC=C(c2c(F)c(S(=O)(=O)NC3(C#N)CC3)cc3c(-c4nnc(C(F)(F)F)s4)nn(C)c23)CC1
T
CC(C)C(=O)N1CC=C(c2c(F)c(S(=O)(=O)NC3(C#N)CC3)cc3c(-c4nnc(C(F)F)s4)nn(C)c23)CC1
F
CC(C)S(=O)(=O)N1CC=C(c2c(F)c(S(=O)(=O)NC3(C#N)CC3)cc3c(-c4nnc(C(F)F)s4)nn(C)c23)CC1
T
CC1=C(c2c(F)c(S(=O)(=O)NC3(C#N)CC3)cc3c(-c4nnc(C(F)F)s4)nn(C)c23)CCN(S(=O)(=O)C(C)C)C1
F

Next:
Q) Lab note: clearance threshold 4 mL/min/kg. Does this molecule come in strictly under it? "CC1=C(c2c(F)c(S(=O)(=O)NC3(C#N)CC3)cc3c(-c4nnc(C(F)(F)F)s4)nn(C)c23)CCN(S(=O)(=O)C(C)C)C1"
A) T
